# System: A549 NSCLC
# method.description: NCI tumour cell line growth inhibition, 48 h
Below, each entry is listed with its recorded TGI.
Just the number please, in µM, no unit attached.

Guide cases for TGI, answers given:
[[record]]
compound = "O=C(N[C@@H](Cc1ccccc1)B(O)O)[C@H](Cc1cccc2ccccc12)NC(=O)N1CCOCC1"
study_system = "A549 NSCLC"
reported_result = 0.47

[[record]]
compound = "N#Cc1c2ccc([N+](=O)[O-])cc2c(=O)n2c1sc1ccccc12"
study_system = "A549 NSCLC"
reported_result = 28.5

[[record]]
compound = "N#CC1=C(S)N(C2OC(CO)C(O)C(O)C2O)C(c2ccccc2)=CC1c1cccs1 (centres undefined)"
study_system = "A549 NSCLC"
reported_result = 45.6


// next item, TGI requested
*Q* Entry under review: Cc1nc2ccccc2c(/C=C/c2ccccc2)c1C(=O)/C=C/c1ccccc1 . Reported TGI?
*A* 6.06

###

# System: HCT-116 colon
# method.description: NCI tumour cell line growth inhibition, 48 h; in the data active = GI50 below about 0.43 µM; inactive = the rest
Lab note: assign the record to one of active, inactive

Worked examples follow.
[[record]]
structure_notation = "N.N.NCCCCCN.O=C([O-])CC(=O)[O-].O=C([O-])CC(=O)[O-].[Pt+4].[Pt+4]"
study_system = "HCT-116 colon"
classification = "inactive"

[[record]]
structure_notation = "COC(=O)CCCNC(=O)C(=O)c1c(O)c(O)c(C(C)C)c2cc(C)c(-c3c(C)cc4c(C(C)C)c(O)c(O)c(C(=O)C(=O)NCCCC(=O)OC)c4c3O)c(O)c12"
study_system = "HCT-116 colon"
classification = "active"

[[record]]
structure_notation = "CCN(CC)c1ccc(/C=N/NC(=O)c2ccccc2Nc2ccnc(C(F)(F)F)c2)c(O)c1"
study_system = "HCT-116 colon"
classification = "active"


*Q* GET /call?item= Cc1nc2ccccc2c(/C=C/c2ccccc2)c1C(=O)/C=C/c1ccccc1 returns the recorded outcome of this test.
*A* inactive

*Q* Any idea what this test logged for COC(=O)[C@H](Cc1cn(C)cn1)NC(=O)[C@@H](NC(=O)Nc1cc(C(F)(F)F)cc(C(F)(F)F)c1)C(C)(C)C ?
*A* inactive

*Q* Record lookup: outcome of this test for C[C@@]1(O)CCC[C@H]1n1c(=O)c(C(F)F)cc2cnc(NC3CCN(S(C)(=O)=O)CC3)nc21 ?
*A* inactive

*Q* Called result for CN1CCN(c2ccc(-c3cccc(CN4CCOCC4)c3)cc2NC(=O)c2c[nH]c(=O)cc2C(F)(F)F)CC1
*A* inactive

###

Documented GI50 across a set of compounds
# Tested on: SK-MEL-5 melanoma
# method.description: NCI tumour cell line growth inhibition, 48 h

[[record]]
compound = "C=C1C(=O)O[C@H]2[C@H]1CC/C(Cn1cc(-c3ccsc3)nn1)=C\\CC[C@@]1(C)O[C@@H]21"
study_system = "SK-MEL-5 melanoma"
reported_result = "1830 nM"

[[record]]
compound = "NC(Cc1c[nH]c2cc(F)ccc12)C(=O)O (centres undefined)"
study_system = "SK-MEL-5 melanoma"
reported_result = "557000 nM"

[[record]]
compound = "CC(C)=CCc1c(O)c(C(=O)CC(C)C)c(O)c2c(-c3ccccc3)cc(=O)oc12"
study_system = "SK-MEL-5 melanoma"
reported_result = "3380 nM"


Here is the next item to consider.
*Q* Notebook: pull reported GI50 for SK-MEL-5 melanoma, entry CC(=Nc1ccccc1)C1=C(O)C(Cc2ccc(F)cc2)NC1=O (centres undefined)
*A* 472 nM

These data points were gathered from PubChem BioAssay (NCI).
